test.target: T1, his-tagged murine TIGIT (Acro Biosystems #TIT-M52E6) (murine, UniProt P86176 29-148, limits assumed)
T1 construct: Bought protein; also called mouse his-tagged TIGIT; not shown: his tag
T1 sequence (looked up): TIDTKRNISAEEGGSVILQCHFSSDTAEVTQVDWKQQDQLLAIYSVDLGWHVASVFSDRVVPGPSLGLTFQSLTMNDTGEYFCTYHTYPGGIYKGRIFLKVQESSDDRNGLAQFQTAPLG
test.method.notes: SPR (Carterra LSA), scFv-Fc captured, His-TIGIT analyte
value.kind: pKd
Lab note — pKd values are minus log10 of concentrations in M.

Examples with answers:
INSERT INTO measurements (binder, reading) VALUES
  ('43586p1.2.C11 (scFv, V domains shown) VH: EVQLLESGGGLVQPGGSLRLSCAASGFTFDDYVMSWVRQAPGKGLEWVSLINWNGDKTYCADSVKGRFTISRDNSKNTLYLQMNSLRAEDTAIYYCAKHWIVFQYGMDVWGQGTTVTVSS VL: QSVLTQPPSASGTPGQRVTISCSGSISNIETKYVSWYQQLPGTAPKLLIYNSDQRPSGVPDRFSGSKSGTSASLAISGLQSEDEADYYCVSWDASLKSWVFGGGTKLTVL', 8.84),
  ('43586p2.F02 (scFv, V domains shown) VH: EVQLLESGGGLVQPGGSLRLSCAASGFTFDDYVMSWVRQAPGKGLEWVSLINWNGDKTYYADSVKGRFTISRDNSKNTLYLQMNSLRAEDTAVYYCARHWIVLQYGLDVWGQGTTVTVSS VL: QSVLTQPLSASGTPGQRVTISCSGVSSNIEIKYVSWYQQLPGTAPKLLIYNSHQRPSGVPDRFSGSKSGTSASLAISGLQSEDEADYYCTSWDDRLKSWVFGGGTKLTVL', 7.02),
  ('43586p1.2.E4 (scFv, V domains shown) VH: EVQLLESGGGLVQPGGSLRLSCAASGFTFSDYLMTWVRQAPGKGLEWVSTITWDGDRTYYADSVKGRFTISRDNSKNTLYLQMNSLRAEDTAVYYCAKHWTVFQYGMDVWGQGTTVTVSS VL: QSVLTQPPSASGTPGQRVTISCSGTISNIEIKYVSWYQQLPGTAPKLLIYGNHQRPSGVPDRFSGSKSGTSASLAISGLQSEDEADYYCSSWENDLKSWVFGGGTKLTVL', 7.18),
  ('43586p1.2.C9 (scFv, V domains shown) VH: EVQLLESGGGLVQPGGSLRLSCAASGFTFDDYVMSWVRQAPGKGLEWVSLINWNGDKTYYADSVKGRFTISRDNSKNTLYLQMNSLRAEDTAIYYCAKHWIVFQYGMDVWGQGTTVTVSS VL: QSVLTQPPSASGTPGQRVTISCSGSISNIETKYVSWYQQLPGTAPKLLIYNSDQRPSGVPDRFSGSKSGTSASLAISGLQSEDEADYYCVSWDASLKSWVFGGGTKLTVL', 8.44);

Here's the next entry for you.
Returns the measured pKd for the input binder. Input: 43586p1.2.E1 (scFv, V domains shown) VH: EVQLLESGGGLVQPGGSLRLSCAASGFTFSDYLMTWVRQAPGKELEWVSTITWDGDRTYYADSVKGRFTISRDNSKNTLYLQMNSLRAEDTAVYYCAKHWTVFQYGMDVWGQGTTVTVSS VL: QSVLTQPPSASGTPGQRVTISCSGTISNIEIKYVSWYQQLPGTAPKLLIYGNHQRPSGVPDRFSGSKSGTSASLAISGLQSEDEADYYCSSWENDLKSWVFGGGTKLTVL 8.13
